Recorded PBMC 10 μM (% control) by entry
biological target: human P2X7 (Homo sapiens (Human), UniProt Q99572); assay: P2X7 antagonism in human PBMCs (IL-1β release after LPS + Bz-ATP, ELISA); type: cell-based; details: 10 μM test compound, human PBMCs, LPS + Bz-ATP
Sequence (Q99572 whole entry): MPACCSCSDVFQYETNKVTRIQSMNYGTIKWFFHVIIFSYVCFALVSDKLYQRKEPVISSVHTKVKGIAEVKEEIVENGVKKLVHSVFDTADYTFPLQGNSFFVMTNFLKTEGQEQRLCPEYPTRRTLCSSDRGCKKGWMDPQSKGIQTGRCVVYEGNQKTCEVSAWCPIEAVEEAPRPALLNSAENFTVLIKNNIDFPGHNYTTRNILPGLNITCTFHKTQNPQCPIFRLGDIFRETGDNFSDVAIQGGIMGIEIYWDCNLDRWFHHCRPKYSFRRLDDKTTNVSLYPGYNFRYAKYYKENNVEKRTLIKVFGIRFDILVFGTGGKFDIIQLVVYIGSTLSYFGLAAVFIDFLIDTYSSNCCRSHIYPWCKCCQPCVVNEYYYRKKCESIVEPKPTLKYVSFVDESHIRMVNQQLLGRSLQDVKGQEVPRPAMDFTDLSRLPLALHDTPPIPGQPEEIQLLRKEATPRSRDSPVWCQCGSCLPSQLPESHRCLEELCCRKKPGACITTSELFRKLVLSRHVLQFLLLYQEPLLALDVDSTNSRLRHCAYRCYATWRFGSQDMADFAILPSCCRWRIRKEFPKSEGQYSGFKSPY
Entry rule: numbers only, all in % control.

Recorded results for 6 molecules are shown here.
CC(C)n1ccc(-n2nnc3c2C[C@H](C)N(C(=O)c2cccc(C(F)(F)F)c2F)C3)n1 [Example 414] ... 22.4
CC(C)n1ccc(-n2nnc3c2C[C@H](C)N(C(=O)c2ccnc(C(F)(F)F)c2F)C3)n1 [Example 418] ... 97.6
CC1c2n[nH]c(-c3ccnn3C)c2CCN1C(=O)c1cccc(C(F)(F)F)c1Cl (stereo not shown) [Example 437] ... −11.7
CC1c2n[nH]c(-c3cnccn3)c2CCN1C(=O)c1cccc(Cl)c1Cl (stereo not shown) [Example 433] ... −3.6
CC(C)n1ccc(-n2nnc3c2CCN(C(=O)c2cccc(C(F)(F)F)c2Cl)[C@H]3C)n1 [Example 413] ... 68.5
CC(C)n1ccc(-n2nnc3c2C[C@H](C)N(C(=O)c2ccnc(C(F)(F)F)c2Cl)C3)n1 [Example 416] ... 1.9

## Task Please report the recorded PBMC 10 μM (% control) for C[C@H]1Cc2c(nnn2-c2cc[nH]n2)CN1C(=O)c1ccnc(C(F)(F)F)c1Cl (single isomer, unassigned) [Example 422] .
## Result −9.6

Source of measurements: patent US10112937B2
